Test: Metabolic stability in human hepatic microsome
Assay type: in vitro ADME
Settings: microsomes, pH 7.4; human hepatic microsome, NADPH(+); read-out: CL NADPH(+)
Starred links: 1 amine or outer side, 2 acyl side, 3 side chain; linkers in the order of their positions; H or OH if unused. Positions of bridges follow the written chain, without caps; N, C: chain ends. Non-standard residues stand in square brackets, D forms with d. Residues, ends and D or L forms follow the SMILES beside them. *: point of attachment. NMeF = CN[C@@H](Cc1ccccc1)C(=O)O; NMeβAla = CN(CCC(=O)[*:2])[*:1]; NMeL = CN[C@@H](CC(C)C)C(=O)O; NMeA = CN[C@@H](C)C(=O)O; Piperidide = C1CCN(*)CC1; Sar = CNCC(=O)O
measurement name: microsomal CLint at 1 uM (µL/min/mg)
One number for each entry, in µL/min/mg.

Here is how some molecules turned out for microsomal CLint at 1 uM.
# molecule, microsomal CLint at 1 uM / µL/min/mg
data = [
    ("CC(C)C[C@H]1C(=O)N[C@H](C(=O)N2CCCCC2)CC(=O)N[C@H](C)C(=O)N(C)[C@@H](Cc2ccccc2)C(=O)N(C)[C@@H](CC(C)C)C(=O)N[C@@H]([C@@H](C)O)C(=O)N(C)CC(=O)N1C [DP-537] ([dA][NMeF][NMeL]T[Sar][NMeL]D-Piperidide; lactam N-7)", 78),
    ("CC(C)C[C@@H]1NC(=O)[C@H](CC(C)C)N(C)C(=O)CCN(C)C(=O)C[C@@H](C(=O)N(C)[C@@H](Cc2ccccc2)C(=O)N[C@@H](C)C(=O)N2CCCCC2)NC(=O)[C@H](C)N(C)C(=O)[C@H]([C@@H](C)O)NC(=O)[C@H](Cc2ccccc2)NC(=O)[C@H](CC(C)C)N(C)C(=O)CNC(=O)[C@H](Cc2ccccc2)N(C)C1=O [DP-446] ([NMeβAla][NMeL]L[NMeF]G[NMeL]FT[NMeA]D[NMeF]A-Piperidide; lactam N-10)", 104),
]

Proceeding to the next molecule to report its microsomal CLint at 1 uM.
Request: Output microsomal CLint at 1 uM of CC(C)C[C@@H]1NC(=O)[C@H](CC(C)C)N(C)C(=O)[C@H](C)N(C)C(=O)C[C@@H](C(=O)N2CCCCC2)NC(=O)[C@H](CC(C)C)N(C)C(=O)[C@H](Cc2ccccc2)N(C)C(=O)[C@H](C)N(C)C(=O)[C@H]([C@@H](C)O)NC(=O)[C@H](Cc2ccccc2)N(C)C1=O [DP-520] ([NMeA][NMeL]L[NMeF]T[NMeA][NMeF][NMeL]D-Piperidide; lactam N-9)
Response: 130
